molecular target: Delta-type opioid receptor (Rattus norvegicus) (UniProt P33533); assay: Agonist activity at rat DOR transfected in rat C6 cell membranes at 10 uM after 1 hr by [35S]GTPgammaS assay relative to DPDPE; assay type: functional
Sequence (P33533 whole entry): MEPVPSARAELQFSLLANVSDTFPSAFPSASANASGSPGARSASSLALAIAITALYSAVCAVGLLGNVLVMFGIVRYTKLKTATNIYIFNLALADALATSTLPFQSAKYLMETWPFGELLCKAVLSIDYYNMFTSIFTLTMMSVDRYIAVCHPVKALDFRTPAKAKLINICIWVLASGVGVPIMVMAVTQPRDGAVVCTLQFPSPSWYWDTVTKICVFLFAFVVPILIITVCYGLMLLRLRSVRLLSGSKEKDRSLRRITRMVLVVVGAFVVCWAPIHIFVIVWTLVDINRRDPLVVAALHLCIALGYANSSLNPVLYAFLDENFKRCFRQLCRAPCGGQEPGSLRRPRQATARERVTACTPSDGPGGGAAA
observed property: Emax

Recorded Emax, per entry:
{"smiles entry": "CCCC(=O)N1CC[C@@H](NC(=O)[C@@H](N)Cc2c(C)cc(O)cc2C)c2cc(Cc3ccccc3)ccc21", "data value": "44%"}
{"smiles entry": "Cc1cc(O)cc(C)c1C[C@H](N)C(=O)N[C@@H]1CCN(C(=O)C(C)C)c2ccc(Cc3ccccc3)cc21", "data value": "52%"}
{"smiles entry": "CCOC(=O)CN1CC[C@@H](NC(=O)[C@@H](N)Cc2c(C)cc(O)cc2C)c2cc(Cc3ccccc3)ccc21", "data value": "34%"}
{"smiles entry": "COCC(=O)N1CC[C@@H](NC(=O)[C@@H](N)Cc2c(C)cc(O)cc2C)c2cc(Cc3ccccc3)ccc21", "data value": "47%"}
{"smiles entry": "Cc1cc(O)cc(C)c1C[C@H](N)C(=O)N[C@@H]1CCN(C(=O)C2CC2)c2ccc(Cc3ccccc3)cc21", "data value": "69%"}

Please fill in: Emax reported for CCC(=O)N1CC[C@@H](NC(=O)[C@@H](N)Cc2c(C)cc(O)cc2C)c2cc(Cc3ccccc3)ccc21 = 58%
